Numbers sourced from patent EP4667466A1.

- system.name: MLLT1 (Homo sapiens)
- Construct: endogenous in cells; host or cells: MV4-11 (ATCC CRL-9591)
- Sequence (Q03111 whole entry): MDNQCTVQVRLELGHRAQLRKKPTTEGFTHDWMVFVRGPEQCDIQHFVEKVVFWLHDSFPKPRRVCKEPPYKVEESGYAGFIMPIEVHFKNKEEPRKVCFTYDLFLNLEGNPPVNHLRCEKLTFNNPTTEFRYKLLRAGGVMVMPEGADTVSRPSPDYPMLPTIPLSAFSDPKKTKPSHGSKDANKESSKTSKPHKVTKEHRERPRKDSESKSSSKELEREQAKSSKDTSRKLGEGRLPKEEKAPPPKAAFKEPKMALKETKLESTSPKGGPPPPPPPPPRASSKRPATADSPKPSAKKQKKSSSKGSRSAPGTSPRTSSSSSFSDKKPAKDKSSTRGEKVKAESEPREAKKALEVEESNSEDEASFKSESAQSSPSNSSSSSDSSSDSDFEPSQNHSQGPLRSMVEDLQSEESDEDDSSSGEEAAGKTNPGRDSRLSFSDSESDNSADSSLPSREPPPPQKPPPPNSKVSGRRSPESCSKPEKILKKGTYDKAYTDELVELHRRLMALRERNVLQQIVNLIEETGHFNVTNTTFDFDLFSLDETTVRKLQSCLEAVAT
- experimental.protocol: MLLT1 degradation assay (JESS automated chemiluminescent detection) in MV4-11 cells
- Type: cell-based
- setup.conditions: 1 µM, 24h, with respect to DMSO control
Some compounds, each annotated with its measured inhibition at 1 µM.
result.type: inhibition at 1 µM

compound	experimental.value
Cc1nn(CCCOCC#Cc2cccc3c2CN(C2CCC(=O)NC2=O)C3=O)c2cc(C(=O)Nc3cc4[nH]c([C@H]5CCCN5C)cc4cn3)ccc12 (stereo partly drawn) [Example 31]	≥ 75%
Cc1nn(CCCCCCCCNc2cccc3c2C(=O)N(C2CCC(=O)NC2=O)C3=O)c2cc(C(=O)Nc3cc4[nH]c(C5CCCN5C)cc4cn3)ccc12 (racemic) [Example 2]	≥ 75%
[2H]C([2H])([2H])N1CCC[C@@H]1c1cc2cnc(NC(=O)c3ccc4c(C)nn(CCCCCCCC#Cc5cccc6c5CN(C5CCC(=O)NC5=O)C6=O)c4c3)cc2[nH]1 (stereo partly drawn) [Example 44]	≥ 75%
